Please respond with reported inhibition for every item in the list.
biological target: Insulin receptor-related protein (Homo sapiens) (UniProt P14616); details: at 0.1 µM;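 also: mean percent inhibition of IRR, reported within the GSK PKIS screening panel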
Sequence (P14616 27-742 limits assumed): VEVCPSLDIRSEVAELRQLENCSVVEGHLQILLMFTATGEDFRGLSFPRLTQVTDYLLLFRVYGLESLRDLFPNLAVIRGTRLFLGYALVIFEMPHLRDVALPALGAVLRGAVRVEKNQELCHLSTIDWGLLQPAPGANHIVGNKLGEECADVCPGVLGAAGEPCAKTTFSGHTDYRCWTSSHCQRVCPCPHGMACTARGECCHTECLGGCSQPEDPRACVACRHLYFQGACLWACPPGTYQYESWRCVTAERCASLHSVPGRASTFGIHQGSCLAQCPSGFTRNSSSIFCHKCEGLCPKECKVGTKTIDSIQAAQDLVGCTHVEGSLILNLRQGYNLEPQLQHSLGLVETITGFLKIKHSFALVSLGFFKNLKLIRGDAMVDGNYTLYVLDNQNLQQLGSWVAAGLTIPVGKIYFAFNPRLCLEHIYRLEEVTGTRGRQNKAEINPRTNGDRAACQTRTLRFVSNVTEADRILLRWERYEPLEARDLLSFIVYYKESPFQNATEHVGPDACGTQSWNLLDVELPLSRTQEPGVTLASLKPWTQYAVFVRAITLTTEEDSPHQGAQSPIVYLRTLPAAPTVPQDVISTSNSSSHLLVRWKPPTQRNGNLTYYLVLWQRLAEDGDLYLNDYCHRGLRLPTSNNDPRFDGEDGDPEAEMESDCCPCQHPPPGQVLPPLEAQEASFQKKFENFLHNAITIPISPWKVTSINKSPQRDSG
Sequence (P14616 747-1297 limits assumed): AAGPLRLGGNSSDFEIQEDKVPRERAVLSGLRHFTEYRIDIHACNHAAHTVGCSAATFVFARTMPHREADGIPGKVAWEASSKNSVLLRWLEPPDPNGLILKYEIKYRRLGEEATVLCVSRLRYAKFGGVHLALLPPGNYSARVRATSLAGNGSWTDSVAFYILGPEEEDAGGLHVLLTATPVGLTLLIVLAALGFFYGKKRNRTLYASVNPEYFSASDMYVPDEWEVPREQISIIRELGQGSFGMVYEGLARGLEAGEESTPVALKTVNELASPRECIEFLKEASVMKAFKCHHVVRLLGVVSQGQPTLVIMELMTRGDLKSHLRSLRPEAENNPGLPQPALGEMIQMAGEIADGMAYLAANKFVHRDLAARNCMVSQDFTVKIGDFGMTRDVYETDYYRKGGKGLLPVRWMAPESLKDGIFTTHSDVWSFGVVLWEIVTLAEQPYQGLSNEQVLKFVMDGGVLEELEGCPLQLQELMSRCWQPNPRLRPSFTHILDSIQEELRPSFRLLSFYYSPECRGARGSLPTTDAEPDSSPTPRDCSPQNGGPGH
Answers are plain numbers, in %.

| mol-smiles | observed-property | units | endpoint-result |
| --- | --- | --- | --- |
| O=C1Nc2ccc(I)cc2C1=Cc1cc(Br)c(O)c(Br)c1 | inhibition | % | 0.52 |
| COc1ccc(-c2ccc3c(NC(=O)C4CC4)n[nH]c3n2)cc1 | inhibition | % | 0.55 |
| CCc1nccc2c1nc(-c1nonc1N)n2CC | inhibition | % | -0.83 |

Report inhibition for each item below.
1. O=C(Nc1n[nH]c2nc(-c3ccc(O)cc3)c(Br)cc12)C1CC1
2. C[C@@H](Oc1cc(-n2cnc3ccc(OC4CCN(C)CC4)cc32)sc1C(N)=O)c1ccccc1Cl
3. Fc1ccc(-c2ncn(C3CCNCC3)c2-c2ccnc(Oc3ccc(F)c(F)c3)n2)cc1

1.99
2.49
3.04
